- Method description: NCI Yeast Anticancer Drug Screen. Data for the cln2 rad14 strain (AID 165)
- Condition context: S. cerevisiae cln2 rad14 strain, at 50.0 µM, stronger effect = higher value
About 79,000 compounds went through this panel and 15% of them were active in at least one assay; those are over-represented in the sample as a whole.
growth inhibition below -10% gives not satisfied; growth inhibition at or above it gives satisfied.

Cc1ccc(S(=O)(=O)OC2CCC3(C)C(=CCC4C3CCC3(C)C(C(C)CCCC(C)C)CCC43)C2)cc1 (configuration not stated): satisfied
CCOC(=O)C(C)(C)O: not satisfied
CCCCOC(=O)C1CSSCC(NC(C)=O)C(=O)N1 (configuration not stated): not satisfied
O=C1CN(C(=O)c2ccccc2)C(=S)N1: not satisfied
Cc1ccc2[nH]c(=O)cc(C)c2c1: satisfied

Assess whether reported growth inhibition for COc1cc(C2c3cc4c(cc3OC(NNC(N)=O)C2C)OCO4)cc(OC)c1OC (configuration not stated) sits at -10% or higher.
not satisfied

Cited source for all entries: PubChem BioAssay (NCI)
